Biological target: 5-hydroxytryptamine receptor 3A (Homo sapiens, UniProt P46098)
Sequence (P46098 whole entry): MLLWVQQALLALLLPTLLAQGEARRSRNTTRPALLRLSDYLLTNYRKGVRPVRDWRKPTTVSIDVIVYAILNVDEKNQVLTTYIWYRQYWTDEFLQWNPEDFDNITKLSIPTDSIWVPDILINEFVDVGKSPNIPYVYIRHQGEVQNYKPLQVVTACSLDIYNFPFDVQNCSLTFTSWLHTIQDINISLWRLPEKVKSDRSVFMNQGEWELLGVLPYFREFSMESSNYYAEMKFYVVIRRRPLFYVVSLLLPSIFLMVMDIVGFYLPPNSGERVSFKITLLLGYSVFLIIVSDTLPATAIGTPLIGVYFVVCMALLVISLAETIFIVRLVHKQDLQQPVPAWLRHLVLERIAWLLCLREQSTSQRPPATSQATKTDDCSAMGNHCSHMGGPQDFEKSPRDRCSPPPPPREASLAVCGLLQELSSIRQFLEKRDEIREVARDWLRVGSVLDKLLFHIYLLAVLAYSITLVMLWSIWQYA
Assay: Antagonist activity at human 5HT3A receptor expressed in HEK293 cells by FMP assay
Type: functional, cell-based
Conditions: read-out: IC50
Would you kindly list IC50 for each of these compounds?
Answers are plain numbers, in µM.

Reference set, count: 2
1. C[N+]12CC[C@@H]3[C@@H]4[C@@H]5[C@@H](OCC=C(C1)[C@@H]5C[C@@H]32)N1c2ccccc2[C@@]23CC[N+]5(C)CC6=CCO[C@H]([C@@H]([C@H]12)[C@H]6C[C@@H]35)N4c1ccccc1.[I-].[I-] (some centres undefined): 30
2. C[N+](C)(Cc1ccc([N+](=O)[O-])cc1)Cc1c2n(c3ccccc13)Cc1c(C[N+](C)(C)Cc3ccc([N+](=O)[O-])cc3)c3ccccc3n1C2.[Br-].[Br-]: 30

Here's the next entry for you.
QUERY: Entry C1=C2CN3CC[C@@H]4[C@@H]5[C@H]([C@@H](OC1)N1c6ccccc6[C@@]67CCN8CC9=CCO[C@H]([C@@H]([C@H]16)[C@H]9C[C@H]87)N5c1ccccc1)[C@H]2C[C@@H]43 has what IC50?
RESULT: 11

====

Biological target: Neuronal acetylcholine receptor; alpha3/beta4 (Rattus norvegicus, UniProt P04757+P12392)
Sequence (P04757 whole entry): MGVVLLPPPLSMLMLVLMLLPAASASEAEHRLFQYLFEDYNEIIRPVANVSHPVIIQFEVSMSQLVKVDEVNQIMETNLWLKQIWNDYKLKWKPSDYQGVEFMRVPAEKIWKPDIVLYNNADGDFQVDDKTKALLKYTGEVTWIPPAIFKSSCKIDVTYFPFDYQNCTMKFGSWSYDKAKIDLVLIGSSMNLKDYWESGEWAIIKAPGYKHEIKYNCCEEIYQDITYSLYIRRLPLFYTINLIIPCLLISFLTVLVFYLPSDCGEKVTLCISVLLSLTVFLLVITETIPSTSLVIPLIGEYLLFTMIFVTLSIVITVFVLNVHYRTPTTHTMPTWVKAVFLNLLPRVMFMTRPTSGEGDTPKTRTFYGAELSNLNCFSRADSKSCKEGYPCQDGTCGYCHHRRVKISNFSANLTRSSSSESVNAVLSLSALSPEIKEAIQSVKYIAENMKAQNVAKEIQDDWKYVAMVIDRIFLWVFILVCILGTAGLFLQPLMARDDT
Sequence (P12392 whole entry): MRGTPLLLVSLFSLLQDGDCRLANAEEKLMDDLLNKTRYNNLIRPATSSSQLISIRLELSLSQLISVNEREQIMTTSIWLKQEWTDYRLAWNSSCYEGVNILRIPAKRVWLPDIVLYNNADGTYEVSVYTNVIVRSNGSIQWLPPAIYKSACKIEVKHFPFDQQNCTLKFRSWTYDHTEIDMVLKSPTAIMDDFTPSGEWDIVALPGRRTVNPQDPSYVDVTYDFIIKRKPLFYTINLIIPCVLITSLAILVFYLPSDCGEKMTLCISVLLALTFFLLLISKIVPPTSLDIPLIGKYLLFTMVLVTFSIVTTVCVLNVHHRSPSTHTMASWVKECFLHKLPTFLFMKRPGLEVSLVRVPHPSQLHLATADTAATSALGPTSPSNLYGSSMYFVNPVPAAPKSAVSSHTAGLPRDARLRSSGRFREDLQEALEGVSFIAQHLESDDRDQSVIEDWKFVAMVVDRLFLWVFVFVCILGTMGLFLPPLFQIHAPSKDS
Assay: Antagonist activity at rat alpha3beta4 nAChR expressed in HEK293 cells by FMP assay
Format: functional, cell-based, Homo sapiens
Details: read-out: IC50
pIC50: −log10 of the molar value.
READOUT LABEL: pIC50

Reference set, count: 2
1. Brc1ccc(C[N+]23CC[C@@H]4[C@@H]5[C@@H]6[C@@H](OCC=C(C2)[C@@H]6C[C@@H]43)N2c3ccccc3[C@@]34CC[N+]6(Cc7ccc(Br)cc7)CC7=CCO[C@H]([C@@H]([C@H]23)[C@H]7C[C@@H]46)N5c2ccccc2)cc1.[Br-].[Br-] (stereo partly drawn): < 4.00
2. CC(=O)OCC[N+]12CC[C@@H]3[C@@H]4[C@@H]5[C@@H](OCC=C(C1)[C@@H]5C[C@@H]32)N1c2ccccc2[C@@]23CC[N+]5(CCOC(C)=O)CC6=CCO[C@H]([C@@H]([C@H]12)[C@H]6C[C@@H]35)N4c1ccccc1.[Br-].[Br-] (stereo partly drawn): < 4.00

Here's the next entry for you.
QUERY: Entry COc1ccc(C[N+]23CC[C@@H]4[C@@H]5[C@@H]6[C@@H](OCC=C(C2)[C@@H]6C[C@@H]43)N2c3ccccc3[C@@]34CC[N+]6(Cc7ccc(OC)c(OC)c7)CC7=CCO[C@H]([C@@H]([C@H]23)[C@H]7C[C@@H]46)N5c2ccccc2)cc1OC.[Cl-].[Cl-] (stereo partly drawn) has what pIC50?
RESULT: < 4.00

====

Molecular target: 5-hydroxytryptamine receptor 3A (Homo sapiens)
Test: Antagonist activity at human 5HT3A receptor expressed in HEK293 cells by FMP assay
Format: functional, cell-based
Conditions: read-out: IC50
pIC50: −log10 of the molar value.
Would you kindly list pIC50 for each of these compounds?

Reference set, count: 2
1. C=CC[N+](C)(C)Cc1c2n(c3ccccc13)Cc1c(C[N+](C)(C)CC=C)c3ccccc3n1C2.[Br-].[Br-]: < 4.00
2. C[N+](C)(C)Cc1c2n(c3ccccc13)Cc1c(C[N+](C)(C)C)c3ccccc3n1C2.[I-].[I-]: < 4.00

Here's the next entry for you.
QUERY: Entry C[N+]12CCC34c5ccccc5N5/C=C6/[C@H]7C[C@H]8[C@@]9(CC[N+]8(C)C/C7=C/CO)c7ccccc7N(/C=C(/[C@@H](C[C@@H]31)/C(=C\CO)C2)[C@H]54)[C@@H]69.[Cl-].[Cl-] (stereo partly drawn) [TOXIFERINE] has what pIC50?
RESULT: < 4.00

====

Target: Neuronal acetylcholine receptor; alpha3/beta4 (Rattus norvegicus, UniProt P04757+P12392)
Experiment: Displacement of [3H]epibatidine from recombinant rat alpha-3-beta-4 nAChr in HEK293 cell line
Would you kindly list pKi for each of these compounds?
One number for each entry, as −log10 of the molar value.

Reference set, count: 2
1) C=CC[N+]12CC[C@@]34c5ccccc5N5/C=C6/[C@H]7C[C@H]8[C@@]9(CC[N@@+]8(CC=C)C/C7=C/CO)c7ccccc7N(/C=C(/[C@@H](C[C@@H]31)/C(=C\CO)C2)[C@H]54)[C@@H]69 (stereo partly specified): 5.49
2) C1=CC([N+]23CC[C@@H]4[C@@H]5[C@@H]6[C@@H](OCC=C(C2)[C@@H]6C[C@@H]43)N2c3ccccc3[C@@]34CC[N+]6(C7C=CCCC7)CC7=CCO[C@H]([C@@H]([C@H]23)[C@H]7C[C@@H]46)N5c2ccccc2)CCC1.[Br-].[Br-] (stereo partly specified): 4.52

Here's the next entry for you.
QUERY: Item C1=C2CN3CC[C@@H]4[C@@H]5[C@H]([C@@H](OC1)N1c6ccccc6[C@@]67CCN8CC9=CCO[C@H]([C@@H]([C@H]16)[C@H]9C[C@H]87)N5c1ccccc1)[C@H]2C[C@@H]43 with Neuronal acetylcholine receptor; alpha3/beta4 (Rattus norvegicus, UniProt P04757+P12392) - pKi?
RESULT: 4.52

====

Biological target: Neuronal acetylcholine receptor; alpha3/beta4 (Rattus norvegicus, UniProt P04757+P12392)
Assay: Displacement of [3H]epibatidine from recombinant rat alpha-3-beta-4 nAChr in HEK293 cell line
pKi: −log10 of the molar value.
READOUT LABEL: pKi

1. C=CC[N+]12CC[C@@H]3[C@@H]4[C@@H]5[C@@H](OCC=C(C1)[C@@H]5C[C@@H]32)N1c2ccccc2[C@@]23CCN5CC6=CCO[C@H]([C@@H]([C@H]12)[C@H]6C[C@H]53)N4c1ccccc1.[Br-] (stereo partly drawn): < 4.00
2. C[N+](C)(Cc1ccc([N+](=O)[O-])cc1)Cc1c2n(c3ccccc13)Cc1c(C[N+](C)(C)Cc3ccc([N+](=O)[O-])cc3)c3ccccc3n1C2.[Br-].[Br-]: < 4.00

QUERY: Entry O=[N+]([O-])c1ccc(C[N+]23CCC4[C@@H]5/C(=C\N6c7ccccc7[C@@]78CC[N+]9(Cc%10ccc([N+](=O)[O-])cc%10)CC%10=CCO[C@H]([C@@H]([C@H]67)[C@H]%10C[C@@H]89)N5c5ccccc5)[C@@H](C[C@@H]42)/C(=C\CO)C3)cc1.[Br-].[Br-] (stereo partly drawn) has what pKi?
RESULT: < 4.00
